Origin of values: patent EP0908457B1

- Tested on: Oryza sativa, (L.) Tebonnet
- Assay details: Rice tolerance to post-transplant applications under flooded paddy conditions (Example 187), ORYSAT (Rice, Tebonnet)
- Conditions used: 0.0313 kg/ha, rated three to four weeks after treatment
Define the label as Met when herbicidal effect rating, ORYSAT (rice tolerance) is strictly less than 2 and as Not met in all remaining cases.

Compound	Discrete label
Cn1c(C(F)(F)F)cc(=O)n(-c2ccc3snc(NS(C)(=O)=O)c3c2)c1=O	Met
Cn1c(C(F)(F)F)cc(=O)n(-c2ccc3snc(N4CCOCC4)c3c2)c1=O	Met
COCCOC(=O)COc1ccc(C)cc1-c1nsc2ccc(-n3c(=O)cc(C(F)(F)F)n(C)c3=O)cc12	Met
COCC(C)OC(=O)COc1ccc(C)cc1-c1nsc2ccc(-n3c(=O)cc(C(F)(F)F)n(C)c3=O)cc12 (racemic)	Met
C=CCOC(=O)COc1ccc(C)cc1-c1nsc2ccc(-n3c(=O)cc(C(F)(F)F)n(C)c3=O)cc12	Not met
Cc1ccc(OCC(=O)OC2CCCC2)c(-c2nsc3ccc(-n4c(=O)cc(C(F)(F)F)n(C)c4=O)cc23)c1	Not met
COc1ccc(C)cc1-c1nsc2ccc(-n3c(=O)cc(C(F)(F)F)n(C)c3=O)cc12	Not met
Cc1ccc(OC2CC(C)OC2=O)c(-c2nsc3ccc(-n4c(=O)cc(C(F)(F)F)n(C)c4=O)cc23)c1 (racemic)	Met
CCCCOCc1nsc2ccc(-n3c(=O)cc(C(F)(F)F)n(C)c3=O)cc12	Not met
